All figures here come from PubChem BioAssay (NCI).

Assay: NCI Yeast Anticancer Drug Screen. Data for the cln2 rad14 strain (AID 165);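 note: 0% = growth equal to vehicle treated cultures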
Conditions: S. cerevisiae cln2 rad14 strain, at 50.0 µM, active compounds read high
Procedure: Growth inhibition of yeast strains with defined genetic alterations is measured as a screen for potential anti-cancer activity. Selected strains with alterations in DNA damage repair or cell cycle control were exposed to compounds and growth inhibition was measured relative to vehicle treated controls. The strain used in this assay is cln2 rad14
This is part of a sample that, as a whole, favours compounds with a hit. Of some 79,000 tested, about 15% had one in any assay.
Response field class: string, computed from recorded growth inhibition by ranges b0 (below -30%), b1 (-30% to below 10%), b2 (10% or more)

{"COMPOUND": "CC1(C)CC[C@]2(C(=O)O)CC[C@]3(C)C(=CC[C@@H]4[C@@]5(C)CC[C@H](OC6OC(C(=O)O)C(O)C(O)C6O)C(C)(C)[C@@H]5CC[C@]43C)[C@@H]2C1 (stereo partly drawn)", "LABEL_VALUE": "b2"}
{"COMPOUND": "Cc1c(F)c(N)c2c(=O)cc(-c3ccc(N)c(F)c3)oc2c1F", "LABEL_VALUE": "b2"}
{"COMPOUND": "CC(O)C(F)(F)F (stereo not drawn)", "LABEL_VALUE": "b2"}
{"COMPOUND": "N#CNC(=NCCO)NCCO", "LABEL_VALUE": "b2"}
{"COMPOUND": "COC(=O)c1ccccc1C1CN=NC12Cc1ccc3c(c1C2=O)CCC3 (stereo not drawn)", "LABEL_VALUE": "b1"}
{"COMPOUND": "CC(=O)c1ccc(C)c([N+](=O)[O-])c1", "LABEL_VALUE": "b0"}
{"COMPOUND": "Cn1c2c(c3ccccc31)=NN1CCN=C1N=2", "LABEL_VALUE": "b1"}
{"COMPOUND": "Cn1ccc(=O)n(C)c1=O", "LABEL_VALUE": "b1"}
{"COMPOUND": "CC(=O)N(C(C)=O)c1cc2c3c(c1)CCCN3CCC2", "LABEL_VALUE": "b0"}
{"COMPOUND": "COC(=O)C(=O)Cc1cccc(OC(C)=O)c1C(=O)OC", "LABEL_VALUE": "b0"}
{"COMPOUND": "CCCCCCCCCCCCCCCSc1ccc2ccccc2c1", "LABEL_VALUE": "b1"}
{"COMPOUND": "Cc1ccc(C)c(NC(=O)C(=O)C2C(=O)C3=C(CC2(C)C)Nc2ccccc2S3)c1 (stereo not drawn)", "LABEL_VALUE": "b1"}
{"COMPOUND": "COC(=O)c1ccc(SCCC2(COS(C)(=O)=O)OCCO2)cc1", "LABEL_VALUE": "b2"}
